# Tested on: T-47D spheroids with HUVEC/MSC, viability
# Procedure Text: Anticancer human tumor T-47D cell line growth inhibition [PI3K];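 note: spheroids exposed to agents for seven days before reading; percent of DMSO vehicle control luminescence so 100% = untreated growth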
# Condition Description: second compound 0.01 µM; first compound 3.16 µM; hits give low values
# Description: Combinatorial screen of targeted agents with the PI3K inhibitors inavolisib, alpelisib, duvelisib, and copanlisib in multi-cell type tumor spheroids A high-throughput screen of multi-cell type tumor spheroids was designed to identify active combinations of targeted small molecules and PI3K pathway inhibitors. […] Compounds. […] If the clinical Cmax for an agent had not been determined, the highest concentration tested was 10 microM. […]
The following compounds are shown together with reported viability, T/C values.
// units = %; emit number, no label

Consider the reported viability, T/C for these compounds:
CC(Cn1ccc(-c2ccc(C#N)c(Cl)c2)n1)NC(=O)c1cc(C(C)O)[nH]n1 (stereo not given) + CC(Nc1ccc2c(c1)OCCn1cc(N3C(=O)OCC3C(F)F)nc1-2)C(N)=O ... 92.2
CCCS(=O)(=O)Nc1ccc(F)c(C(=O)c2c[nH]c3ncc(-c4ccc(Cl)cc4)cc23)c1F + COc1c(OCCCN2CCOCC2)ccc2c3n(c(=NC(=O)c4cnc(N)nc4)nc12)CCN3 ... 87.4
C#Cc1c(F)ccc2cc(O)cc(-c3ncc4c(N5CC6CCC(C5)N6)nc(OCC56CCCN5CC(F)C6)nc4c3F)c12 (stereo not given) + COc1c(OCCCN2CCOCC2)ccc2c3n(c(=NC(=O)c4cnc(N)nc4)nc12)CCN3 ... 114
CCCS(=O)(=O)Nc1ccc(F)c(C(=O)c2c[nH]c3ncc(-c4ccc(Cl)cc4)cc23)c1F + CC(Nc1ccc2c(c1)OCCn1cc(N3C(=O)OCC3C(F)F)nc1-2)C(N)=O ... 87.8

CC1(C)CCC(CN2CCN(c3ccc(C(=O)NS(=O)(=O)c4ccc(NCC5CCOCC5)c([N+](=O)[O-])c4)c(Oc4cnc5[nH]ccc5c4)c3)CC2)=C(c2ccc(Cl)cc2)C1 + CC(Nc1ccc2c(c1)OCCn1cc(N3C(=O)OCC3C(F)F)nc1-2)C(N)=O tested on T-47D spheroids with HUVEC/MSC, viability gave viability, T/C: 79.5
